abundance fitness listing for selected variants.
B1: Spectrin alpha chain, erythrocytic 1, residues 979 to 1036; numbered along this chain, P02549 (parent)
chain: EQRVMALYDFQARSPREVTMKKGDVLTLLSSINKDWWKVEAADHQGIVPAVYVRRLAH

Variants of: B1
TEST PROTOCOL: abundance fitness (aPCA) (normalised: wild type 0, dead -1); higher = more abundant; growth selection in yeast, the domain comes from the species named
PROTOCOL CONDITIONS: Homo sapiens
I only need the number, thanks.

Here is how some variants turned out for abundance fitness.
MUTATION NAME	abundance fitness
V48A	-0.687
F10D	-0.834
L56K	-0.417

Give a short answer stating reported abundance fitness for T27I .
-0.521

Give a short answer stating reported abundance fitness for V51Y .
-0.242

Give a short answer stating reported abundance fitness for E40Q .
0.188

Give a short answer stating reported abundance fitness for I47M .
0.561
